- Test system: IGROV-1
- assay procedure: NCI tumour cell line growth inhibition, 48 h
Activity calls are given as the source filed them. Rule as the data show it: active = GI50 up to about 1.1 µM and inactive = higher.
Parameter call: string, one of active, inactive

Worked cases, answers included:
> print(dat)
                                   molecule  assigned.label
1  C#CCn1c(=O)c(C)cn(/C(=C\C(=O)OCC)C(=O)OCC)c1=O        inactive
2  COC(=O)c1c(C)ccc2c(O)c3c(cc12)C(=O)c1c2c(cc(O)c1C3=O)C1(C)OC(C)(O2)C(O)C(N(C)C)C1O (centres undefined)          active
3  CC1=CCC[C@@H]2[C@@](C)(Cc3cc(O)ccc3O)[C@H](C)CC[C@@]12C        inactive

Query: Hi, do you know how COc1ccc2nc(NC(=O)C(=O)C(C#N)c3ccc(Cl)c(Cl)c3)sc2c1 (centres undefined) came out in this test?
Response: inactive

Query: GET /call?item= CC(c1cccc2ccccc12)/[N+]([O-])=C/c1ccccc1 (centres undefined) returns the recorded outcome of this test.
Response: inactive

Query: I would be grateful if you could indicate the recorded call for OCc1ccc2c(c1)CC1(C2)Cc2cc3c(cc2C1O)CCC3 (centres undefined) .
Response: inactive

Query: Any idea what this test logged for C#CCN(CC#C)C(=O)C(=O)c1c[nH]c2ccc(OC)cc12 ?
Response: inactive

Query: Tell me the assay call for CCNC12CCC(C1)C(C)(C)C2=O (centres undefined) please.
Response: inactive

Query: Hey, what did the test say about Cc1cc(Cl)ccc1NC(=O)C(=O)C(C(=O)c1ccccc1)C1OC(=O)c2ccccc21 (centres undefined) ?
Response: inactive

###

- System: UACC-62
- assay procedure: NCI tumour cell line growth inhibition, 48 h
The source made the active and inactive calls. Rule as the data show it: active = GI50 up to about 1.1 µM and inactive = higher.
Measured GI50 accompanies every entry in the list below.

Sample records with GI50:
compound	target of assay	GI50
COc1ccc(NC(=O)/C(=N/O)C(C)=O)cc1	UACC-62	> 100 µM (inactive)
Cc1cc(C(C)C)cc(=O)c(O)c1	UACC-62	> 100 µM (inactive)
O=C1CCC2(c3ccc(F)cc3)Nc3ncncc3N12 (configuration not stated)	UACC-62	> 10 µM (inactive)
Cc1cc(C)n(C2=NS(=O)(=O)c3ccccc3N2C)n1	UACC-62	> 100 µM (inactive)
NC(CCc1ccccc1)(C(=O)O)c1ccccc1 (configuration not stated)	UACC-62	> 100 µM (inactive)
O=C(/C=C/c1cccs1)c1ccc([N+](=O)[O-])cc1	UACC-62	> 100 µM (inactive)
CN1CCC(n2[nH]c(-c3ccccc3)c(Cc3ccccc3)c2=O)CC1	UACC-62	> 100 µM (inactive)
CC(C)NC(=O)OCc1c(COC(=O)NC(C)C)c(-c2cc[n+](COC(=O)Cc3ccccc3)cc2)n2c1CCC2	UACC-62	56.2 µM (inactive)
O=C(O)C1CCCCC1c1c2ccc(=O)cc-2oc2cc(O)ccc12 (configuration not stated)	UACC-62	25.9 µM (inactive)
C/C(=N\N=C1/C(=O)OC(c2ccccc2)=C1C(=O)c1ccccc1)c1ccc([N+](=O)[O-])cc1	UACC-62	38.9 µM (inactive)

Query: Enter reported GI50 observed with UACC-62 for C[C@]12C(=O)C=CCC1=CC[C@@H]1[C@@H]2[C@H]2CC3(O)C(=O)O[C@@]4(C)[C@H]5C[C@@]6(C)[C@@H]7[C@@]2(O)[C@]1(OC[C@H]6C(=O)O5)O[C@]734 (some centres not stated)
Response: 26.4 µM (inactive)

Query: Query for UACC-62: what GI50 does the record show for Cc1nc(-n2nc(-c3ccccc3)cc2-c2ccccc2)sc1C(=O)/C=C/c1ccc(/C=C/C(=O)c2sc(-n3nc(-c4ccccc4)cc3-c3ccccc3)nc2C)cc1 ?
Response: > 10 µM (inactive)

###

- Test system: SW-620
- assay procedure: NCI tumour cell line growth inhibition, 48 h
The source made the active and inactive calls. Rule as the data show it: active = GI50 up to about 1.1 µM and inactive = higher.
Response enum: active, inactive

molecule	assigned label
Cc1nc(Nc2ccc(Cl)cc2)sc1C(=O)Nc1cccc2c(=O)[nH][nH]c(=O)c12	inactive
O=C(O)C(O)C(O)C(O)C(O)CO.[Ba+2] (stereo not drawn)	inactive

Query: For CCOC(=O)C(Cc1cc(OC)c(CC(C(=O)OCC)C(=O)OCC)cc1OC)C(=O)OCC , which call appears in the assay record?
Response: inactive

Query: Fill in: this test's call for CCCCCC/C(CC(=O)CCC(=O)NCCc1ccccc1)=N\NC(=O)c1ccc2ccccc2c1O is ___
Response: inactive

Query: Look up the recorded call for O=C1CSC(c2cccc(Cl)c2)N1c1ccc(-c2ccc(-n3c(-c4ccccc4)nc4ccccc4c3=O)cc2)cc1 (stereo not drawn) in this test.
Response: inactive

###

- Test system: NCI-H226
- assay procedure: NCI tumour cell line growth inhibition, 48 h
Calls of active or inactive are those of the source. No stated cut-off is given here; in the data, active = GI50 up to about 1.1 µM and inactive = higher.
Below, each entry is listed alongside its reported GI50.

Query: What GI50 value was documented for this molecule, CCOC(=O)/C(=C/c1cccc(Cl)c1)N(CC)CC ?
Response: 37.8 µM (inactive)

###

- Test system: T47D
- assay procedure: NCI tumour cell line growth inhibition, 48 h
Calls of active or inactive are those of the source. Rule as the data show it: active = GI50 up to about 1.1 µM and inactive = higher.
# GI50 per record follows

Recorded GI50, per entry:
compound	GI50
NCCN(CCN)/[N+]([O-])=N/O	> 100 µM (inactive)
C#CCN(CC#C)C(=O)C(=O)c1c[nH]c2ccc(OC)cc12	24.2 µM (inactive)

Query: Using the record for COC1=CC(=O)c2c(O)c3c(c(O)c2C1=O)OC1(Oc2c(cc4cc(C)oc(=O)c4c2O)CC1O)C3O (stereo unspecified) , report its GI50.
Response: 38.1 µM (inactive)

Query: Form field: reported GI50 of C=C1C(=O)OC2CC(C)C(C(O)CC(C)O)=CCC12 (stereo unspecified)
Response: 7.08 µM (inactive)

Query: // returns reported GI50 for input O=C(CCc1ccc(O)c(O)c1)NCCc1ccccc1
Response: 34.4 µM (inactive)

Query: Can you look up the measured GI50 of CC[S+]([O-])C(=O)N(O)c1ccc(Cl)cc1 (stereo unspecified) for me?
Response: 31.3 µM (inactive)

Query: Quick one: GI50 for COC(=O)c1ccccc1/C=C1\Cc2ccc3c(c2C1=O)CCC3 ?
Response: > 100 µM (inactive)

Query: Need GI50 of CCCCCCCCCCCCCC[S+](C)C , thanks.
Response: 2.1 µM (inactive)

Query: Reported GI50, compound O=C1c2cccnc2C(=O)C2C3C=CC(C3)C12 (stereo unspecified) : ____
Response: 3.01 µM (inactive)

Query: What GI50 value was documented for this compound, Cn1c(=O)c2c(nc3n(Cc4ccccc4)c(=O)c(Br)cn23)n(C)c1=O ?
Response: > 100 µM (inactive)

###

Each entry below carries its reported GI50.
- Tested on: NCI-H460
- assay procedure: NCI tumour cell line growth inhibition, 48 h
Active and inactive are the calls of the source. Cut-off read from the data, not from the text of the source: active = GI50 up to about 1.1 µM and inactive = higher.

Look over these answered cases.
molecule	target of assay	GI50
COC(=O)C1OC(O[C@H]2CC[C@]3(C)[C@H]4CC=C5[C@@H]6CC(C)(C)CC[C@]6(C(=O)OC6OCC(O)C(O)C6OC6OC(C)C(OC7OCC(O)C(O)C7O)C(OC7OCC(O)(CO)C7O)C6O)[C@H](O)C[C@@]5(C)[C@]4(C)CC[C@H]3C2(C)C)C(O)C(O)C1O (stereo partly drawn)	NCI-H460	16.3 µM (inactive)
Cc1cc(C)n(C2=NS(=O)(=O)c3ccccc3N2C)n1	NCI-H460	> 100 µM (inactive)
COc1ccc2c(c1O)C13CCN(C)C(C2)C1CCC1(C3)OCCO1 (stereo not drawn)	NCI-H460	> 100 µM (inactive)

Query: Provide the documented GI50 with NCI-H460 as the system for C=C(CCCCC)CN1CCCC1C(C)=O (stereo not drawn)
Response: 29 µM (inactive)

Query: Recall the recorded GI50 for ClCCN(CCCl)c1ccc(/C=N/Nc2ccnc3ccccc23)cc1 with NCI-H460 and state it.
Response: 2.73 µM (inactive)

Query: Under NCI-H460: GI50 value of CC(c1cccc2ccccc12)/[N+]([O-])=C/c1ccccc1 (stereo not drawn) ?
Response: > 100 µM (inactive)

Query: Value wanted: GI50 (NCI-H460) of entry Oc1ccc(Cn2c(-c3ccc(O)c(O)c3)nc3ccccc32)cc1O
Response: 15.8 µM (inactive)

Query: Recorded GI50 for C=CCN1C2Cc3cc(OC)c(OC)cc3C1Cc1cc(OC)c(OC)cc12 with NCI-H460, please?
Response: > 100 µM (inactive)

###

- Test system: A498
- assay procedure: NCI tumour cell line growth inhibition, 48 h
Activity calls are given as the source filed them. Rule as the data show it: active = GI50 up to about 1.1 µM and inactive = higher.
Allowed answers: TRUE for active, FALSE for inactive

Solved cases below.
molecule	assigned label
CCCc1ccc(/N=C\c2cc(OC)c(OC)c(OC)c2)cc1	FALSE
Cc1ccc(C2=Nc3c(N)nc(N)nc3NC(c3ccccc3)C2)cc1 (configuration not stated)	FALSE
O=C1OC(=O)c2c1c(-c1ccccc1)nc1ccccc21	FALSE

Query: Hi, sorry to bother you, what did the test record for N#Cc1c(O)c(/N=N/c2ccccc2F)c(=O)n2c1[nH]c1ccccc12 ?
Response: FALSE

Query: In this assay, the call recorded for CC1C(O)C2(Oc3cc4c(c5c3[C@@H](CC5O)[C@H]2C)CCC2Cc3nc5c(nc3C[C@@]42C)CC2CCC3C4=C[C@H]6O[C@@]7(O[C@@](C)(CO)C[C@@H]7O)C(C)[C@@]6(O)[C@]4(C)[C@@H](O)CC3[C@]2(C)C5)OC1(C)C (some centres not stated) was what?
Response: TRUE

Query: Status in this test for CSCSSC ?
Response: TRUE

Query: Hi team, can someone confirm the assay call for O=c1c2ccccc2n2c(-c3ccc(O)cc3)nnc2n1-c1ccccc1 ?
Response: FALSE
